The following binders are shown together with reported FACS reading values.
# Assay System: T1, Claudin 18.2 (CLDN18.2), expressed on CHOS-CLDN 18.2 / HEK293-CLDN 18.2 / HCC827-CLDN 18.2 cells (human, UniProt P56856-2 1-261)
# T1 construct: whole, on cells; The species is not repeated for the CHOS-CLDN 18.2 cells; also called claudin-18A2
# Assay Protocol: FACS, CHOS-CLDN18.2 cells, 0.313 µg/ml
Please give the numeric answer without any surrounding text.

Would you please look over these solved cases?
# Binder, FACS reading
rows = [
    ("QP024025 (antibody, human IgG1, V domains shown, also called IMAB362; 175D10(IMAB362)) VH: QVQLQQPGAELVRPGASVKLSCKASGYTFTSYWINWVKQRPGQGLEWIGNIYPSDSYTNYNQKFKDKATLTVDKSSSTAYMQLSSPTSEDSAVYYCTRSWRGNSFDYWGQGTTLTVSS VL: DIVMTQSPSSLTVTAGEKVTMSCKSSQSLLNSGNQKNYLTWYQQKPGQPPKLLIYWASTRESGVPDRFTGSGSGTDFTLTISSVQAEDLAVYYCQNDYSYPFTFGSGTKLEIK", 51000),
    ("QP14491448 (antibody, human IgG1, kappa, V domains shown, Humanized from QP199200) VH: EVQLVESGGGLVQPGGSLRLSCAASGFTFSSFGMHWVRQAPGKGLEWVSYISSGSNSIYYVDTVKGRFTISRDNAKNSLYLQMNSLRDEDTAVYYCARNAYYGNSFDYWGQGTLVTVSS VL: DIVMTQSPDSLAVSLGERATISCKSSQSLLNSGNQKNYLTWYQQKPGQPPKLLIYWASTRESGVPDRFTGSGSGTVFTLTISSLQAEDVAVYFCQNNYYYPLTFGGGTKVEIKR", 45100),
]

Given item QP199200 (antibody, human IgG1, V domains shown, Chimeric; also called 43C11; mouse-derived chimeric antibody QP199200) VH: DVQLVESGGGLVQPGGSRKLSCAASGFTFSSFGMHWVRQAPEKGLEWVAYISSGSNSIYYVDTVKGRFTISRDNPKNTLFLQMTSLKSEDTAMYYCARNAYYGNSFDYWGQGTTLTVSS VL: DIVMTQSPSSLTVTAGEKVTMSCKSSQSLLNSGNQKNYLTWYQQKPGQPPKLLIYWASTRESGVPDRFTGSGSGTVFTLTISSVQAEDLAVYFCQNNYYYPLTFGAGTKLELK , the value recorded as its FACS reading is 50600

Given item QP14501448 (antibody, human IgG1, kappa, V domains shown, Humanized from QP199200) VH: EVQLVESGGGLVQPGGSLRLSCAASGFTFSSFGMHWVRQAPGKGLEWVAYISSGSNSIYYVDTVKGRFTISRDNAKNSLYLQMNSLRDEDTAVYYCARNAYYGNSFDYWGQGTLVTVSS VL: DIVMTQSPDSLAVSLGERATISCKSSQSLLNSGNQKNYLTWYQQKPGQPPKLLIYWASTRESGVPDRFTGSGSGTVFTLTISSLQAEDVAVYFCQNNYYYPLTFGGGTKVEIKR , the value recorded as its FACS reading is 45600

Where do these numbers come from? They come from patent US20230183352A1.
